Field: relative viability. Provide a value for each of the molecules that follow.
# System: A-427
# assay procedure: relative viability (nuclei count vs DMSO), 5 days (fraction); higher = more cells survive
# condition context: first compound 0.05 µM
Numbers only.

Look over these answered cases.
CC1(C)CCC(c2ccc(Cl)cc2)=C(CN2CCN(c3ccc(C(=O)NS(=O)(=O)c4ccc(N[C@H](CCN5CCOCC5)CSc5ccccc5)c(S(=O)(=O)C(F)(F)F)c4)cc3)CC2)C1 [Navitoclax] + NC(=O)Nc1cc(-c2cccc(F)c2)sc1C(=O)N[C@H]1CCCNC1 [AZD7762] (partner 0.2 µM) :: 0.639
CC1(C)CCC(c2ccc(Cl)cc2)=C(CN2CCN(c3ccc(C(=O)NS(=O)(=O)c4ccc(N[C@H](CCN5CCOCC5)CSc5ccccc5)c(S(=O)(=O)C(F)(F)F)c4)cc3)CC2)C1 [Navitoclax] + N=C(N)NC(=N)NCCc1ccccc1 [Phenformin] (partner 250 µM) :: 0.179
CC1(C)CCC(c2ccc(Cl)cc2)=C(CN2CCN(c3ccc(C(=O)NS(=O)(=O)c4ccc(N[C@H](CCN5CCOCC5)CSc5ccccc5)c(S(=O)(=O)C(F)(F)F)c4)cc3)CC2)C1 [Navitoclax] + CS(=O)(=O)N1CCN(Cc2cc3nc(-c4cccc5[nH]ncc45)nc(N4CCOCC4)c3s2)CC1 [Pictilisib] (partner 1 µM) :: 0.659

Value sought for every listed molecule: relative viability.
1. CC1(C)CCC(c2ccc(Cl)cc2)=C(CN2CCN(c3ccc(C(=O)NS(=O)(=O)c4ccc(N[C@H](CCN5CCOCC5)CSc5ccccc5)c(S(=O)(=O)C(F)(F)F)c4)cc3)CC2)C1 [Navitoclax] + Cc1nc(Nc2ncc(C(=O)Nc3c(C)cccc3Cl)s2)cc(N2CCN(CCO)CC2)n1 [Dasatinib] (partner 0.075 µM)
2. CC1(C)CCC(c2ccc(Cl)cc2)=C(CN2CCN(c3ccc(C(=O)NS(=O)(=O)c4ccc(N[C@H](CCN5CCOCC5)CSc5ccccc5)c(S(=O)(=O)C(F)(F)F)c4)cc3)CC2)C1 [Navitoclax] + Nc1nc2[nH]cc(CCc3ccc(C(=O)N[C@@H](CCC(=O)O)C(=O)O)cc3)c2c(=O)[nH]1 [Pemetrexed] (partner 0.2 µM)

## Output
[0.71, 0.968]

---

# System: NCI-H1299
# assay procedure: relative viability (nuclei count vs DMSO), 5 days (fraction); higher = more cells survive
# condition context: first compound 0.253 µM
measured attribute: relative viability
Answers are plain numbers.

Please review the entries below; each comes with its answer.
Oc1nc(-c2ccc(C(F)(F)F)cc2)nc2c1CSCC2 [XAV939] + CS(=O)(=O)N1CCN(Cc2cc3nc(-c4cccc5[nH]ncc45)nc(N4CCOCC4)c3s2)CC1 [Pictilisib] (partner 1 µM) :: 0.701
C=C1C(=O)O[C@@H](CCCCCCCC)[C@@H]1C(=O)O [C-75] + CC(C)C[C@H](NC(=O)[C@H](Cc1ccccc1)NC(=O)c1cnccn1)B(O)O [Bortezomib] (partner 0.002 µM) :: 0.932
C=C1C(=O)O[C@@H](CCCCCCCC)[C@@H]1C(=O)O [C-75] + CS(=O)(=O)N1CCN(Cc2cc3nc(-c4cccc5[nH]ncc45)nc(N4CCOCC4)c3s2)CC1 [Pictilisib] (partner 1 µM) :: 0.825
C=C1C(=O)O[C@@H](CCCCCCCC)[C@@H]1C(=O)O [C-75] + COc1cc2c(Oc3ccc(NC(=O)C4(C(=O)Nc5ccc(F)cc5)CC4)cc3F)ccnc2cc1OCCCN1CCOCC1 [Foretinib] (partner 0.25 µM) :: 1.03
Oc1nc(-c2ccc(C(F)(F)F)cc2)nc2c1CSCC2 [XAV939] + C[C@@H](Oc1cc(-c2cnn(C3CCNCC3)c2)cnc1N)c1c(Cl)ccc(F)c1Cl [Crizotinib] (partner 1 µM) :: 0.978

## Input Output relative viability of C=C1C(=O)O[C@@H](CCCCCCCC)[C@@H]1C(=O)O [C-75] + O=C(c1cc(Cc2n[nH]c(=O)c3ccccc23)ccc1F)N1CCN(C(=O)C2CC2)CC1 [Olaparib] (partner 8 µM)
## Output 0.976

---

Exercise: state measured relative viability for each of the compounds provided.
# System: NCI-H1563
# assay procedure: relative viability (nuclei count vs DMSO), 5 days (fraction); higher = more cells survive
# condition context: first compound 2.53 µM
One number for each entry.

Reference set, count: 3
Oc1nc(-c2ccc(C(F)(F)F)cc2)nc2c1CSCC2 [XAV939] + C[C@@H](Oc1cc(-c2cnn(C3CCNCC3)c2)cnc1N)c1c(Cl)ccc(F)c1Cl [Crizotinib] (partner 1 µM) :: 0.697
C=C1C(=O)O[C@@H](CCCCCCCC)[C@@H]1C(=O)O [C-75] + Nc1nc2[nH]cc(CCc3ccc(C(=O)N[C@@H](CCC(=O)O)C(=O)O)cc3)c2c(=O)[nH]1 [Pemetrexed] (partner 0.2 µM) :: 0.666
C=C1C(=O)O[C@@H](CCCCCCCC)[C@@H]1C(=O)O [C-75] + CC(C)C[C@H](NC(=O)[C@H](Cc1ccccc1)NC(=O)c1cnccn1)B(O)O [Bortezomib] (partner 0.002 µM) :: 0.763

Please state, for each entry, its recorded relative viability.
1. Oc1nc(-c2ccc(C(F)(F)F)cc2)nc2c1CSCC2 [XAV939] + COc1cccc2cc(-c3nc([C@H]4CC[C@H](C(=O)O)CC4)n4ncnc(N)c34)[nH]c12 [OSI-027] (partner 0.5 µM)
2. C=C1C(=O)O[C@@H](CCCCCCCC)[C@@H]1C(=O)O [C-75] + Cc1nc(Nc2ncc(C(=O)Nc3c(C)cccc3Cl)s2)cc(N2CCN(CCO)CC2)n1 [Dasatinib] (partner 0.075 µM)

## Output
1. 0.614
2. 0.415

---

Give measured relative viability for each item. Keep answers brief.
# Test system: NCI-H1944
# assay procedure: relative viability (nuclei count vs DMSO), 5 days (fraction); higher = more cells survive
# condition context: first compound 0.253 µM
Answers are plain numbers.

Reference set, count: 4
Oc1nc(-c2ccc(C(F)(F)F)cc2)nc2c1CSCC2 [XAV939] + CC1(C)CCC(c2ccc(Cl)cc2)=C(CN2CCN(c3ccc(C(=O)NS(=O)(=O)c4ccc(N[C@H](CCN5CCOCC5)CSc5ccccc5)c(S(=O)(=O)C(F)(F)F)c4)cc3)CC2)C1 [Navitoclax] (partner 0.5 µM) :: 0.986
C=C1C(=O)O[C@@H](CCCCCCCC)[C@@H]1C(=O)O [C-75] + COc1cc2c(Oc3ccc(NC(=O)C4(C(=O)Nc5ccc(F)cc5)CC4)cc3F)ccnc2cc1OCCCN1CCOCC1 [Foretinib] (partner 0.25 µM) :: 0.756
Oc1nc(-c2ccc(C(F)(F)F)cc2)nc2c1CSCC2 [XAV939] + O=C(c1cc(Cc2n[nH]c(=O)c3ccccc23)ccc1F)N1CCN(C(=O)C2CC2)CC1 [Olaparib] (partner 8 µM) :: 0.279
C=C1C(=O)O[C@@H](CCCCCCCC)[C@@H]1C(=O)O [C-75] + Cc1cc(Nc2cc(N3CCN(C)CC3)nc(Sc3ccc(NC(=O)C4CC4)cc3)n2)n[nH]1 [Tozasertib] (partner 0.1 µM) :: 0.235

Below are some molecules; for each one, tell me its relative viability.
1. C=C1C(=O)O[C@@H](CCCCCCCC)[C@@H]1C(=O)O [C-75] + O=C(CCCCCCC(=O)Nc1ccccc1)NO [Vorinostat] (partner 1 µM)
2. C=C1C(=O)O[C@@H](CCCCCCCC)[C@@H]1C(=O)O [C-75] + CS(=O)(=O)N1CCN(Cc2cc3nc(-c4cccc5[nH]ncc45)nc(N4CCOCC4)c3s2)CC1 [Pictilisib] (partner 1 µM)
3. C=C1C(=O)O[C@@H](CCCCCCCC)[C@@H]1C(=O)O [C-75] + Nc1ncn([C@H]2C[C@H](O)[C@@H](CO)O2)c(=O)n1 [Decitabine] (partner 2 µM)

## Output
[0.591, 0.34, 0.471]

---

# Test system: LCLC-97TM1
# assay procedure: relative viability (nuclei count vs DMSO), 5 days (fraction); higher = more cells survive
# condition context: first compound 0.4 µM
measured attribute: relative viability
One number for each entry.

O=C(O)c1ccc(-c2c[nH]c3ncc(-c4ccccc4)cc23)cc1C1CCCC1 + COc1cccc2cc(-c3nc([C@H]4CC[C@H](C(=O)O)CC4)n4ncnc(N)c34)[nH]c12 [OSI-027] (partner 0.5 µM) :: 0.518

For each of the compounds below, state relative viability.
1. O=C(O)c1ccc(-c2c[nH]c3ncc(-c4ccccc4)cc23)cc1C1CCCC1 + O=C(CCCCCCC(=O)Nc1ccccc1)NO [Vorinostat] (partner 1 µM)
2. O=C(O)c1ccc(-c2c[nH]c3ncc(-c4ccccc4)cc23)cc1C1CCCC1 + CS(=O)(=O)CCNCc1ccc(-c2ccc3ncnc(Nc4ccc(OCc5cccc(F)c5)c(Cl)c4)c3c2)o1 [Lapatinib] (partner 2 µM)

## Output
0.747
0.922

## Input Look up relative viability of O=C(O)c1ccc(-c2c[nH]c3ncc(-c4ccccc4)cc23)cc1C1CCCC1 + C[C@@H](Oc1cc(-c2cnn(C3CCNCC3)c2)cnc1N)c1c(Cl)ccc(F)c1Cl [Crizotinib] (partner 1 µM) and report it.
## Output 0.234

Entry source: the supplement of paper PMC10307832
